# system: Bromodomain-containing protein 4 (Homo sapiens, UniProt O60885, Y97A)
Just a reminder that ties go to not met: only IC50 strictly below 500 nM counts as met.

Example entries begin here.
1) CC(=O)N1CCN(Cc2ccccc2)c2ccccc21 | not met
2) CC(=O)N1CCN(Cc2ccccc2C(=O)O)c2ccccc21 | not met
3) CCC1CN(Cc2ccccc2)c2cc(-c3cnc(C)cn3)ccc2N1C(C)=O (stereo not drawn) | met
4) CC(=O)N1c2ccccc2N(Cc2ccccc2C(=O)O)CC1C1CC1 (stereo not drawn) | not met

Is IC50 strictly under 500 nM for the entry CC(=O)N1c2ccccc2N(Cc2ccccc2)CC1C1CC1 (stereo not drawn) ?
not met

Is IC50 strictly under 500 nM for the entry CC(=O)N1c2ccccc2N(Cc2ccc(Cl)cc2C(=O)O)CC1C1CC1 (stereo not drawn) ?
not met

Is IC50 strictly under 500 nM for the entry CCC1CN(Cc2ccccc2)c2cc(-c3ccc(=O)[nH]c3)ccc2N1C(C)=O (stereo not drawn) ?
met

Is IC50 strictly under 500 nM for the entry CC(=O)N1c2ccccc2N(Cc2ccccc2OCCO)CC1C1CC1 (stereo not drawn) ?
met

Is IC50 strictly under 500 nM for the entry CC(=O)N1c2ccccc2N(Cc2cccc(C)c2)CC1C1CC1 (stereo not drawn) ?
not met

Data origin, for the record: ChEMBL document CHEMBL4184317
